Origin of measurements: patent US20030148956A1

Listed next: entries and their corresponding CRF2R EC50.
Molecular target: T1, CRF2R
T1 sequence (Q13324 whole entry, species assumed, looked up): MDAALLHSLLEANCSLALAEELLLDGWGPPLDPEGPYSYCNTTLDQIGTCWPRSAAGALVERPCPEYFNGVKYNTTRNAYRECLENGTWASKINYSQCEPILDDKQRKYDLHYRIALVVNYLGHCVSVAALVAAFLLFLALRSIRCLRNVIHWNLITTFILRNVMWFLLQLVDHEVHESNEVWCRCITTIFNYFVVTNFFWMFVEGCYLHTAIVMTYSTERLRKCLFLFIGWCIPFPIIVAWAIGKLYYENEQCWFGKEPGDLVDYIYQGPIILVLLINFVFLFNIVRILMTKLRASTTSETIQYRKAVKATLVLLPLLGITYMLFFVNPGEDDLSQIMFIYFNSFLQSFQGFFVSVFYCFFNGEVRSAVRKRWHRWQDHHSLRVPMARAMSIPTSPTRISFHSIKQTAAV
Assay: cell-based or functional assay
Ends that are not written are not given here.

{"BINDER": "SQEPPISLDLPTHLLREVLEMTKADQLAQQAHSNRKLLDIA-NH2 [SEQ ID NO 99]", "READOUT UNITS": "nM", "VALUE QUALIFIER": "=", "CRF2R EC50": 100}
{"BINDER": "IVLSLDVPIGLLQILLEQERQEAAREQATTNARILARV-NH2 [SEQ ID NO 118]", "READOUT UNITS": "nM", "VALUE QUALIFIER": "=", "CRF2R EC50": 14.6}
{"BINDER": "SQEPPISLDLPFYLLREVLEMTKADQLAQQAHSNRKLLDIA-NH2 [SEQ ID NO 96]", "READOUT UNITS": "nM", "VALUE QUALIFIER": "=", "CRF2R EC50": 100}
{"BINDER": "ZGPPISIDLPLVLLRKMIEIEKQEKEKQQAANNRLLLDTI (C-terminal amide) [SEQ ID NO 193]", "READOUT UNITS": "nM", "VALUE QUALIFIER": "=", "CRF2R EC50": 10.1}
{"BINDER": "IVLSLDVPIGLLQILLEQTKARAAREQATTNARILARV-NH2 [SEQ ID NO 117]", "READOUT UNITS": "nM", "VALUE QUALIFIER": "=", "CRF2R EC50": 9.41}
{"BINDER": "ZGPPISIDLPFQLLRKMIEIEKQEKEKQQATTNRLLLARV (C-terminal amide) [SEQ ID NO 19]", "READOUT UNITS": "nM", "VALUE QUALIFIER": "=", "CRF2R EC50": 7.42}
{"BINDER": "SQEPPISLDLPLHLLREVLEMTKADQLAQQAHSNRKLLDIA-NH2 [SEQ ID NO 102]", "READOUT UNITS": "nM", "VALUE QUALIFIER": "=", "CRF2R EC50": 100}
{"BINDER": "SQEPPISLDLTFHLLREVLEQARARAAREQATTNARILARV-NH2 [SEQ ID NO 157]", "READOUT UNITS": "nM", "VALUE QUALIFIER": "=", "CRF2R EC50": 42}
{"BINDER": "ZGPPISIDLPINLLRKMIEIEKQEKEKQQAANNRLLLDTI (C-terminal amide) [SEQ ID NO 37]", "READOUT UNITS": "nM", "VALUE QUALIFIER": ">", "CRF2R EC50": 100}
{"BINDER": "ZGPPISIDLPQYLLRKMIEIEKQEKEKQQAANNRLLLDTI (C-terminal amide) [SEQ ID NO 27]", "READOUT UNITS": "nM", "VALUE QUALIFIER": "=", "CRF2R EC50": 10.7}
{"BINDER": "ZGPPISIDLPQQLLRKMIEIEKQEKEKQQAANNRLLLDTI (C-terminal amide) [SEQ ID NO 198]", "READOUT UNITS": "nM", "VALUE QUALIFIER": "=", "CRF2R EC50": 29.9}
{"BINDER": "IVLSLDVPIGLLQILLEQARQRAAREQATTNARILARV-NH2 [SEQ ID NO 114]", "READOUT UNITS": "nM", "VALUE QUALIFIER": "=", "CRF2R EC50": 3.42}
{"BINDER": "IVLSLDVPIGLLQILLEQARARAAREQATTQARILARV-NH2 [SEQ ID NO 9]", "READOUT UNITS": "nM", "VALUE QUALIFIER": "=", "CRF2R EC50": 100}
{"BINDER": "SQEPPISLDLPFHLLREVLEMTKADQLAQQAHSNRKLLDIA-NH2 [SEQ ID NO 104]", "READOUT UNITS": "nM", "VALUE QUALIFIER": "=", "CRF2R EC50": 100}
{"BINDER": "ZGPPISIDLPIILLRKMIEIEKQEKEKQQAANNRLLLDTI (C-terminal amide) [SEQ ID NO 36]", "READOUT UNITS": "nM", "VALUE QUALIFIER": "=", "CRF2R EC50": 14.8}
{"BINDER": "DNPSLSIDLPFLLLRTLLELARTQSQRERAEQNAIIFASV-NH2 [SEQ ID NO 180]", "READOUT UNITS": "nM", "VALUE QUALIFIER": "=", "CRF2R EC50": 3.14}
{"BINDER": "ZGPPISIDLPVYLLRKMIEIEKQEKEKQQAANNRLLLDTI (C-terminal amide) [SEQ ID NO 39]", "READOUT UNITS": "nM", "VALUE QUALIFIER": "=", "CRF2R EC50": 58.2}
{"BINDER": "IVLSLDVPIGLLQILLEQEKQRAAREQATTNARILARV-NH2 [SEQ ID NO 115]", "READOUT UNITS": "nM", "VALUE QUALIFIER": "=", "CRF2R EC50": 13.6}
{"BINDER": "IVLSLDVPIGLLQILLEQTKADQLAQQAHSNRKLLDIA-NH2 [SEQ ID NO 159]", "READOUT UNITS": "nM", "VALUE QUALIFIER": "=", "CRF2R EC50": 90.8}
{"BINDER": "ZGPPISIDLPTVLLRKMIEIEKQEKEKQQAANNRLLLDTI (C-terminal amide) [SEQ ID NO 46]", "READOUT UNITS": "nM", "VALUE QUALIFIER": ">", "CRF2R EC50": 100}
{"BINDER": "ZGPPISIDLPIQLLRKMIEIEKQEKEKQQAANNRLLLDTI (C-terminal amide) [SEQ ID NO 78]", "READOUT UNITS": "nM", "VALUE QUALIFIER": "=", "CRF2R EC50": 24.6}
{"BINDER": "ZGPPISIDLPQLLLRKMIEIEKQEKEKQQAANNRLLLDTI (C-terminal amide) [SEQ ID NO 196]", "READOUT UNITS": "nM", "VALUE QUALIFIER": "=", "CRF2R EC50": 27.7}
{"BINDER": "ZGPPISIDLPIRLLRKMIEIEKQEKEKQQAANNRLLLDTI (C-terminal amide) [SEQ ID NO 38]", "READOUT UNITS": "nM", "VALUE QUALIFIER": "=", "CRF2R EC50": 71.9}
{"BINDER": "IVLSLDVPIGLLQILLEQAKARAAREQATTNARILARV-NH2 [SEQ ID NO 109]", "READOUT UNITS": "nM", "VALUE QUALIFIER": "=", "CRF2R EC50": 11.8}
